TESTED_ON: cholesterol ester transfer protein (CETP) (Homo sapiens, UniProt P11597)
Construct: CETP is obtained from human plasma in partially purified form by differential centrifugation and column chromatography
Sequence (P11597 18-493): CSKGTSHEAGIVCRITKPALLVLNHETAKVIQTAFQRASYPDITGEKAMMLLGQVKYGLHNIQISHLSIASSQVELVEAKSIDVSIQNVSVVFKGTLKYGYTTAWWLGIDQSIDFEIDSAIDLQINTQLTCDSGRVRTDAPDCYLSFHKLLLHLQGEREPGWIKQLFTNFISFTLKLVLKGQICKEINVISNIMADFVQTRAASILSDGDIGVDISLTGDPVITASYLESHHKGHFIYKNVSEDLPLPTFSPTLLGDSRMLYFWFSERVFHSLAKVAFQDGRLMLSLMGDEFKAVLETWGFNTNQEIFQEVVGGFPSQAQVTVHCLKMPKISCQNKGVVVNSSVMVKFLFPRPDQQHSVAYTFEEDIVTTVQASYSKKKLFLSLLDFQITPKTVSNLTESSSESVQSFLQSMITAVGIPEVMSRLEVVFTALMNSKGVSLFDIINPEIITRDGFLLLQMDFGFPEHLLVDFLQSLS
TEST: CETP inhibition testing (transfer of 3H-cholesterol ester from human HD lipoproteins to biotinylated LD lipoproteins)
SETUP_CONDITIONS: CETP partially purified from human plasma; 3H-cholesterol ester transfer HDL to biotin-LDL, 37° C., 18 h
pIC50: −log10 of the molar value.
RECORDED_ENDPOINT: pIC50

# OCc1c(-c2ccc(F)cc2)cc(C2CCCC2)c(C(F)c2ccc(C(F)(F)F)cc2)c1-c1ccc(F)cc1 (stereo not drawn) with cholesterol ester transfer protein (CETP) (Homo sapiens, UniProt P11597): pIC50 is 7.05

P = CC(C)c1cc(-c2ccc(F)cc2)c(CO)c(-c2ccc(F)cc2)c1C(F)c1ccc(C(F)(F)F)cc1 (stereo not drawn)
Q = CC(C)c1cc(-c2ccc(F)cc2)c(CO)c(-c2ccc(F)cc2)c1C(=O)c1ccc(C(F)(F)F)cc1
## Input Would you mind telling me which has the lower recorded pIC50 between P and Q ? Write the label of whichever entry you select.
## Output Q
(Q: 5.40, P: 7.00)

Source: patent US6121330A
